System: A-375
Assay: Cytotoxicity against human A375 cells by MTT assay
Format: functional, cell-based
pIC50: −log10 of the molar value. Structures can show the parent of a compound that is named as a salt.
We use 5 as the dividing line for pIC50: on or above the line is Met, below is Not met.

molecule=CCCCn1c2ccccc2c2cc(CNCCCN(CC)CC)ncc21 class_label="Not met"
molecule="COc1cccc2c1C(=O)c1c(O)c3c(c(O)c1C2=O)C[C@@](O)(C(=O)CO)C[C@@H]3O[C@H]1C[C@H](N)[C@H](O)[C@H](C)O1 [DOXORUBICIN HYDROCHLORIDE]" class_label="Not met"
molecule=CCN(CC)CCCNCc1cc2c(cn1)[nH]c1ccccc12 class_label="Not met"
molecule=CCCCn1c2ccccc2c2cc(CNCCCCN(CC)CC)ncc21 class_label="Not met"
molecule=CCN(CC)CCCNCc1cc2c3ccccc3n(Cc3cccc(Cl)c3)c2cn1 class_label="Not met"
molecule=CCN(CC)CCCNCc1cc2c3ccccc3n(Cc3ccccc3)c2cn1 class_label="Not met"
molecule=CCN(CC)CCCCNCc1cc2c3ccccc3n(Cc3ccc(F)cc3)c2cn1 class_label=Met
molecule=CCN(CC)CCNCc1cc2c3ccccc3n(Cc3ccccc3)c2cn1 class_label="Not met"
molecule=CCN(CC)CCNCc1cc2c3ccccc3n(CCCc3ccccc3)c2cn1 class_label=Met
molecule=CCN(CC)CCNCc1cc2c3ccccc3n(Cc3ccc(F)cc3)c2cn1 class_label="Not met"
molecule=CCCCn1c2ccccc2c2cc(CNCCN(CC)CC)ncc21 class_label="Not met"
molecule=CCN(CC)CCNCc1cc2c3ccccc3n(C)c2cn1 class_label="Not met"
molecule=CCN(CC)CCCCNCc1cc2c3ccccc3n(CCCc3ccccc3)c2cn1 class_label=Met
molecule=CCN(CC)CCCCNCc1cc2c3ccccc3n(Cc3ccccc3)c2cn1 class_label="Not met"
molecule=CCN(CC)CCCNCc1cc2c3ccccc3n(C)c2cn1 class_label="Not met"
molecule=CCN(CC)CCCCNCc1cc2c3ccccc3n(C)c2cn1 class_label="Not met"
molecule=CCN(CC)CCNCc1cc2c3ccccc3n(Cc3cccc(Cl)c3)c2cn1 class_label="Not met"
